Where these numbers come from: PubChem BioAssay (Tox21)

experiment: A CellTox Green Cytotoxicity Assay to monitor cytotoxicity in HEK293 cells - 40 hour (AID 1224871); settings: CellTox Green fluorescence; series mostly up to 76.8 µM; further: on the % scale 0 is the no-effect control and ±100 the full control effect; nearly all actives have a fitted effect of over 45% in size
Inconclusive results are not listed. Active and inactive are the calls of the source. The call rests on the fitted dose curve; in most records, active means well fitted activation curve with a large enough effect in the repeat runs; inconclusive means weak or mixed curves; inactive means flat fitted curve, though single readings scatter.
property.name: outcome

Examples with their reported outcome follow.
{"columns": ["molecule", "outcome"],
 "data": [
  ["CCC1(c2ccc(N)cc2)CCC(=O)NC1=O (stereo not given)", "inactive"],
  ["CC1(C)C(C(=O)OC(C#N)c2cccc(Oc3ccccc3)c2)C1(C)C (stereo not given)", "inactive"],
  ["CC[n+]1c(-c2ccccc2)c2cc(N)ccc2c2ccc(N)cc21", "inactive"],
  ["O=NN1CCOCC1", "inactive"],
  ["N#CC(c1ccccc1)c1ccccc1", "inactive"],
  ["O=C1Nc2ccc(Cl)cc2C(c2ccccc2)=NC1O (stereo not given)", "inactive"],
  ["CCCCSP(=O)(SCCCC)SCCCC", "inactive"],
  ["CC(C)(O)C#N", "inactive"],
  ["CC(C)COC(=O)c1ccccc1C(=O)OCC(C)C", "inactive"],
  ["Cc1ccc(N=CN(C)C=Nc2ccc(C)cc2C)c(C)c1", "inactive"]
]}

Req: So what's the measured outcome for this one? CC(O)CN(CC(C)O)CC(C)O (stereo not given)
Resp: inactive

---

test: A CellTox Green Cytotoxicity Assay to monitor cytotoxicity in HepG2 cells - 40 hour (AID 1224879); conditions: CellTox Green fluorescence; series mostly up to 76.8 µM; further: on the % scale 0 is the no-effect control and ±100 the full control effect; nearly all actives have a fitted effect of over 40% in size
Results filed as inconclusive are left out. Active and inactive are the calls of the source. Calls come from the whole dose curve; as a rule, active = well fitted activation curve with a large enough effect in the repeat runs; inconclusive = weak or mixed curves; inactive = flat fitted curve, though single readings scatter.
// classify into active, inactive

Reference set (6 entries):
{"columns": ["compound", "assigned.label"],
 "data": [
  ["ClCc1ccccn1", "inactive"],
  ["C[N+](C)(C)CC(=O)O", "inactive"],
  ["Brc1ccc(Br)cc1", "inactive"],
  ["ClC(Cl)(Cl)Br", "inactive"],
  ["CC(C)COC(=O)c1ccccc1C(=O)OCC(C)C", "inactive"],
  ["Nc1ccc([N+](=O)[O-])cc1N", "inactive"]
]}

Req: // outcome(item) with item = `Cl`
Resp: inactive

Req: What is the recorded call for this compound in the test? `OCCOCCO`
Resp: inactive

Req: Please indicate how the test categorized `COc1ccc(CO)cc1` .
Resp: inactive

---

test: qHTS assay to test for compound auto fluorescence at 535 nm (green) in HEK293 cells (AID 720680); details: green autofluorescence 485/535 nm; series mostly up to 91.3 µM; further: on the % scale 0 is the no-effect control and ±100 the full control effect
Calls of active or inactive are those of the source. Calls come from the whole dose curve; as a rule, active = well fitted curve in the direction sought with a large enough effect in the repeat runs; inconclusive = weak or mixed curves; inactive = flat fitted curve, though single readings scatter.
property.name: outcome

Previously resolved entries follow.
{"columns": ["structure.as.smiles", "outcome"],
 "data": [
  ["Clc1ccccc1-c1nnc(-c2ccccc2Cl)nn1", "inactive"],
  ["CCCCCCCCCCCCCl", "inactive"],
  ["C[C@]12CCC(=O)C=C1CC[C@@H]1[C@@H]2CC[C@@]2(C)[C@H]1CC[C@]2(C)O", "inactive"],
  ["ClC(Cl)(Cl)c1ccccc1", "inactive"],
  ["COc1ccc(C=O)cc1OC", "inactive"]
]}

Req: Param item = `Nc1ncn[nH]1` ; retrieve measured outcome.
Resp: inactive

Req: # lookup: outcome of `CCCCCCCC[N+](C)(CCCCCCCC)CCCCCCCC`
Resp: inactive

---

target: Vitamin D3 receptor (Homo sapiens) (UniProt P11473); experiment: qHTS assay to identify small molecule antagonists of the vitamin D receptor (VDR) signaling pathway (AID 743223); details: VDR-UAS-bla HEK293T, beta-lactamase FRET ratio, 16 h; series mostly up to 61 µM
Sequence (P11473 whole entry, looked up): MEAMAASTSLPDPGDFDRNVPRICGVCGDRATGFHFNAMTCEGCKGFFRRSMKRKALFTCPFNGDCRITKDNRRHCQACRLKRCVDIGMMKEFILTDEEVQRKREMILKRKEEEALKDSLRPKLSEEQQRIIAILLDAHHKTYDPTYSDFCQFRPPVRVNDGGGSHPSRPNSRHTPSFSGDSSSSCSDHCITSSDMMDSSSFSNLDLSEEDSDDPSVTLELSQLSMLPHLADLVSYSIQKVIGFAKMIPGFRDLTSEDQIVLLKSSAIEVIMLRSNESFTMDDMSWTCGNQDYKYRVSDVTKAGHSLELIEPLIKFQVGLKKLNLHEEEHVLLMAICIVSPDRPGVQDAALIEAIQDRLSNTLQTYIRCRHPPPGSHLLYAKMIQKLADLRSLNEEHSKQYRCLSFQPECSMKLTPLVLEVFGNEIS
Records with an inconclusive call do not appear. The source made the active and inactive calls. The call rests on the fitted dose curve; in most records, active means well fitted inhibition curve with a large enough effect in the signal ratio in the repeat runs (not every such curve was filed as active); inconclusive means weak or mixed curves, or effect the other way; inactive means no such curve, though single readings can be large or run the other way; the % refers to the signal ratio.
Return exactly one item of active, inactive

Record excerpt, results attached:
{"columns": ["compound", "assigned.label"],
 "data": [
  ["CCOP(=O)(OCC)OCC", "inactive"],
  ["CCC1(c2ccc(N)cc2)CCC(=O)NC1=O (stereo unspecified)", "inactive"],
  ["CCCCSP(=O)(SCCCC)SCCCC", "inactive"],
  ["Cc1cc(Cl)ccc1N=CN(C)C", "inactive"]
]}

Req: Per the records of this test, what outcome belongs to `N#CC(c1ccccc1)c1ccccc1` ?
Resp: inactive

Req: Write down the call the test reported for this compound. Item: `O=C(O)CF`
Resp: inactive

Req: Tell me the recorded outcome of this test for `N#Cc1cccnc1` .
Resp: inactive

Req: Each compound tested received a call. Report the one for `Cc1cccc(N=Nc2ccc(N(C)C)cc2)c1` .
Resp: inactive

Req: Test call, this compound: `C=CC(=O)OCC(CC)(COC(=O)C=C)COC(=O)C=C`
Resp: active

Req: Lab log entry: O=C1Nc2ccc(Cl)cc2C(c2ccccc2)=NC1O (stereo unspecified) — outcome as called in the assay?
Resp: inactive

Req: // param item: N#Cc1nn(-c2c(Cl)cc(C(F)(F)F)cc2Cl)c(N)c1S(=O)C(F)(F)F (stereo unspecified) ; yields the recorded call
Resp: inactive

---

test: qHTS assay to identify small molecule antagonists of the estrogen receptor alpha (ER-alpha) signaling pathway using the BG1 cell line in the presence of 0.1 nM 17-beta-estradiol - cell viability counter screen (AID 1259241); details: VM7Luc4E2 (BG1) viability, CellTiter-Fluor protease, 22 h, 0.1 nM estradiol agonist added; series mostly up to 92.4 µM; further: on the % scale 0 is the no-effect control and ±100 the full control effect; nearly all actives have a fitted effect of over 40% in size
Records with an inconclusive call do not appear. Active and inactive are the calls of the source. Calls come from the whole dose curve; as a rule, active = well fitted cell-killing curve with a large enough effect in the repeat runs; inconclusive = weak or mixed curves, or effect the other way; inactive = flat fitted curve, though single readings scatter.
Your answer must be one of the following: active, inactive

Req: So what was the verdict on `C[N+](C)(C)CC(=O)O` in this test?
Resp: inactive

Req: Which outcome was assigned to `CNC(=O)CSP(=S)(OC)OC` in this test?
Resp: inactive

Req: Record lookup: outcome of this test for CC1CC(=O)O1 (centres undefined) ?
Resp: inactive

---

Assay: qHTS assay to identify small molecule antagonists of the retinoid-related orphan receptor gamma (ROR-gamma) signaling pathway - cell viability counter screen (AID 1159520); further: on the % scale 0 is the no-effect control and ±100 the full control effect; nearly all actives have a fitted effect of over 50% in size
Details: Tet-on RORgamma CHO cells viability, ATP luminescence, 16 h; series mostly up to 92.4 µM
Description: U.S. Tox21 Program National Center for Advancing Translational Sciences [NCATS] NIH Chemical Genomics Center [NCGC] U.S. Environmental Protection Agency [EPA] National Institutes of Environmental Health Sciences [NIEHS] National Toxicology Program [NTP] U.S. Food and Drug Administration [FDA] […] Reporter gene activity was induced using Doxycycline Hyclate and measured after 16 hr incubation. […]
Records with an inconclusive call do not appear. Active and inactive are the calls of the source. Calls come from the whole dose curve; as a rule, active = well fitted cell-killing curve with a large enough effect in the repeat runs; inconclusive = weak or mixed curves, or effect the other way; inactive = no such curve, though single readings can be large or run the other way.
property.name: outcome

{"columns": ["compound", "outcome"],
 "data": [
  ["CCCCCCCCCC(CC)c1ccc(S(=O)(=O)O)cc1 (stereo unspecified)", "inactive"],
  ["O=C(O)CF", "inactive"],
  ["N#CCCCCC#N", "inactive"],
  ["Clc1ccc(C(Cl)(Cl)Cl)cc1", "inactive"],
  ["CCCCOCCOC(C)=O", "inactive"]
]}

Consider now this further compound.
Req: Consider the compound `CC(C)COC(=O)c1ccccc1C(=O)OCC(C)C` and give its measured outcome.
Resp: inactive

---

test: qHTS assay to identify small molecule antagonists of the sonic hedgehog signaling (Shh) pathway (AID 1259369); settings: NIH/3T3 Gli1-Luc reporter, Shh antagonist, luminescence 24 h; series mostly up to 92.4 µM; further: nearly all actives have a fitted effect of over 45% in size
Records with an inconclusive call do not appear. The source made the active and inactive calls. Calls come from the whole dose curve.
Respond only with the outcome that fits, drawn from true (1) (active), false (0) (inactive)

For orientation, consider the following solved cases.
{"columns": ["compound", "assigned.label"],
 "data": [
  ["N#Cc1c(Cl)c(Cl)c(Cl)c(C#N)c1Cl", "true (1)"],
  ["c1ccc(C2CO2)cc1 (centres undefined)", "false (0)"],
  ["CN(C)c1nc(=O)n(C2CCCCC2)c(=O)n1C", "false (0)"],
  ["O=C(O)c1nn(Cc2ccc(Cl)cc2Cl)c2ccccc12", "false (0)"],
  ["N#CCCCCC#N", "false (0)"]
]}

Req: For this compound, state the assay outcome: CC(O)CN(CC(C)O)CC(C)O (centres undefined)
Resp: false (0)

Req: Name the outcome recorded for `Cc1cc(Cl)ccc1N=CN(C)C` in the assay.
Resp: false (0)

Req: Answer briefly: the call reported for `Clc1ccccc1-c1nnc(-c2ccccc2Cl)nn1` in this assay.
Resp: false (0)

Req: # fetch the recorded call for C=CC(Cl)CCl (centres undefined) here
Resp: false (0)

Req: Look up the recorded call for `CCC[CH2][Sn]([Cl])([CH2]CCC)[CH2]CCC` in this test.
Resp: true (1)

Req: What did the test return for `CCOP(=S)(OCC)SCSC(C)(C)C` ?
Resp: false (0)

Req: I'd appreciate the recorded outcome for `NN=C(N)N` from this test.
Resp: false (0)

Req: What did this assay record as the result for `O=S(=O)(O)C(F)(F)C(F)(F)C(F)(F)C(F)(F)C(F)(F)C(F)(F)C(F)(F)C(F)(F)F` ?
Resp: false (0)

Req: Any idea what this test logged for `CC1(C)Cc2cccc(O)c2O1` ?
Resp: false (0)
